The origin of these recorded values is PubChem BioAssay (EPA / NIEHS).

Read-out: CFLAR gene, CFLAR (gene 8837)
assayNotes: LTEA_HepaRG_CFLAR: Life Technologies and Expression Analysis (LTEA) Assay for CFLAR gene using HepaRG (AID 2283455)
experimentalSetup: mRNA level, 48 h; actives raise or lower the signal
Active and inactive are the calls of the source. How the source made its calls: active means hit-call score of the fitted dose curve at least 0.9, where 1 is the maximum; inactive means score below 0.9.
# output must be one of y for active, n for inactive

State the result this test recorded for CC(C)=CCC/C(C)=C\CO .
n

Continue with the molecule presented below.
Which outcome did this test record for the molecule CCCCC(CC)COC(=O)c1ccc(C(=O)OCC(CC)CCCC)cc1 (centres undefined) ?
n

====

tgt: Heat shock factor protein 1 (Homo sapiens) (UniProt Q00613)
Sequence (Q00613 whole entry, looked up): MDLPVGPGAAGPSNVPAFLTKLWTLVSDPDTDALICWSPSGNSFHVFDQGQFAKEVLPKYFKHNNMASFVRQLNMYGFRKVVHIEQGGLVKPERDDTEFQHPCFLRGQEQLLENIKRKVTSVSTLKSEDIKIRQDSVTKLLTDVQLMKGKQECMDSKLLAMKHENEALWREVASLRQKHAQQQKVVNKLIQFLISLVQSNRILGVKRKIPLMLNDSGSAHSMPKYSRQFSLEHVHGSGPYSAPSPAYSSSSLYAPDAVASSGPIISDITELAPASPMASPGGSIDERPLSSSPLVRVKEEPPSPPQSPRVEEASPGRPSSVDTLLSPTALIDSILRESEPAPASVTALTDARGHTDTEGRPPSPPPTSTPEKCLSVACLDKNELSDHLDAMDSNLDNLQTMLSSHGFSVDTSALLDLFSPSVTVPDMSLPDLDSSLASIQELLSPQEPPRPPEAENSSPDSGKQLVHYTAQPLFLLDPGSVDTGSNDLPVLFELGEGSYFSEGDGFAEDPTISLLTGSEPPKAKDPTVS
assayNotes: ATG_HSE_CIS: Attagene CIS-FACTORIAL HepG2 Assay for human Heat Shock Transcription Factor 1 (HSE) (AID 2282953)
experimentalSetup: HepG2 HSE cis-reporter, Attagene RNA transcription; actives raise or lower the signal
Procedure: ATG_CIS is a cell-based, multiplexed-readout assay that uses HepG2, a human liver cell line, with measurements taken at 24 hours after chemical dosing in a 24-well plate.ATG_HSE_CIS is one of 52 assay component(s) measured or calculated from the ATG_CIS assay. […] This assay endpoint, ATG_HSE_CIS, was analyzed with bidirectional fitting relative to DMSO as the negative control and baseline of activity. […]
Calls of active or inactive are those of the source. Rule for the calls: active = hit-call score of the fitted dose curve at least 0.9, where 1 is the maximum; inactive = score below 0.9.
// classify into active, inactive

What is the recorded call for this molecule in the test? COc1ccc2sc(C(=O)Nc3nnn[nH]3)c(OC(C)C)c2c1
inactive

====

tgt: rat Neurokinin-1 Receptor (NK1), Tacr1 (gene 24807) (UniProt P14600)
Sequence (P14600 whole entry, looked up): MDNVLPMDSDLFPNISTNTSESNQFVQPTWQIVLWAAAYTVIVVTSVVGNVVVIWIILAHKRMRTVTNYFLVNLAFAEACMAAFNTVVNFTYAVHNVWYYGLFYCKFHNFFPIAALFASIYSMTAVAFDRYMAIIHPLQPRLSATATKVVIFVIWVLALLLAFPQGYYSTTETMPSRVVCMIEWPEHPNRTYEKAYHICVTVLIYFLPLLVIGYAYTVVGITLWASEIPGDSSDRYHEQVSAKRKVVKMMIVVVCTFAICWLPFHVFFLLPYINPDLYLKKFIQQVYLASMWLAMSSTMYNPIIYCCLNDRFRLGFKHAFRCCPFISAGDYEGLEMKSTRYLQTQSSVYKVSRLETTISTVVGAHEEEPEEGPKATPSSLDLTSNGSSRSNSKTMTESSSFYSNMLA
assayNotes: NVS_GPCR_rNK1: NovaScreen (NVS) G Protein-Coupled Receptor Assay for rat Neurokinin-1 Receptor (NK1) (AID 2283309)
Inconclusive results are not listed. Activity calls are given as the source filed them. How the source made its calls: active means hit-call score of the fitted dose curve at least 0.9, where 1 is the maximum; inconclusive means response in the unintended direction; inactive means score below 0.9.
reportedMetric: AC50

Please review the entries below; each comes with its answer.
Entry CCCN(C1CCN(C(=O)C2CCNCC2)CC1)[C@@H]1CCc2ccc(OC)cc2C1 has what AC50?
inactive

// query AC50 value for entry COc1ccc(-n2nc(C(F)F)cc2-c2ccc(S(C)=O)cc2)cc1 (stereo not drawn)
25 µM (active)

Which AC50 is listed for CCOC(=O)c1ccc(C2CCC(NC[C@H](O)COc3ccc(O)c(NS(C)(=O)=O)c3)CC2)cc1 (stereo partly drawn) ?
inactive

Looking for the measured AC50 of CCOc1cccc(-n2cc(C(=O)N3CCN(c4cc(C(=O)O)c5ccccc5c4)CC3)nc2-c2ccc(C)cc2)c1 , can you help?
14.8 µM (active)

So what does the record say about AC50 for Cc1[nH]cnc1C[C@H]1CCc2c(C)c3ccccc3n2C1=O ?
inactive

New cases:
What measured AC50 goes with CCCCC(CC)COC(=O)CCCCCCCCC(=O)OCC(CC)CCCC (stereo not drawn) ?
inactive

Give the measured AC50 of CC[C@H]1CC[C@H](NCc2cc3c(cc2OC)[C@H]2C[C@H]2C(=O)N3C)[C@H](c2ccccc2)N1 .
0.296 µM (active)

Item Cn1c(=O)cc(Oc2ccc(F)cc2F)c2cnc(NCC(C)(C)O)nc21 has what recorded AC50?
20.3 µM (active)

====

tgt: rat Opioid Receptor, Non-selective Sodium (Na+) Binding, Oprm1 (gene 25601) (UniProt P33535)
Sequence (P33535 whole entry, looked up): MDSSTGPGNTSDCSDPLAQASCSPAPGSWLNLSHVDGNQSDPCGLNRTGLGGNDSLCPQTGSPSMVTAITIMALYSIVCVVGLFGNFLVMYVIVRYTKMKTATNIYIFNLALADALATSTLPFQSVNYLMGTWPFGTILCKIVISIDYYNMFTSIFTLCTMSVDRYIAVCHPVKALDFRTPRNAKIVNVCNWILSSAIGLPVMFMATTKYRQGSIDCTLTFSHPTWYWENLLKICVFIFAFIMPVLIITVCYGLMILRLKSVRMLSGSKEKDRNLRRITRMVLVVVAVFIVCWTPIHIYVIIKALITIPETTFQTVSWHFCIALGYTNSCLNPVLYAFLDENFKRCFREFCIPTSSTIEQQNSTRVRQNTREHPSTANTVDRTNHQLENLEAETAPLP
assayNotes: NVS_GPCR_rOpiate_NonSelectiveNa: NovaScreen (NVS) G Protein-Coupled Receptor Assay for rat Opioid Receptor, Non-selective Sodium (Na+) Binding (AID 2283311)
Description: NVS_GPCR_rOpiate_NonSelectiveNa is a biochemical, single-readout assay that uses extracted gene-proteins from Rat forebrain membranes in a tissue-based cell-free assay. Measurements were taken 1.5 hours after chemical dosing in a 48-well plate.NVS_GPCR_rOpiate_NonSelectiveNa is one of one assay component(s) measured or calculated from the NVS_GPCR_rOpiate_NonSelectiveNa assay. […]
Records with an inconclusive call do not appear. The source made the active and inactive calls. Rule for the calls: active = hit-call score of the fitted dose curve at least 0.9, where 1 is the maximum; inconclusive = response in the unintended direction; inactive = score below 0.9.
Please reply with one of these outcomes: t = active, f = inactive

These recorded examples may help you get a feel for the data.
Assay outcome for COc1cccc(-c2ccc(/C=C\CN3CCCCCC3)cc2Cl)c1 : what was it?
t

What did the test return for CCOC(=O)c1ccc(C2CCC(NC[C@H](O)COc3ccc(O)c(NS(C)(=O)=O)c3)CC2)cc1 (stereo not given in full) ?
f

State the result this test recorded for COc1ccc(-n2nc(C(F)F)cc2-c2ccc(S(C)=O)cc2)cc1 (stereo not given) .
f

I would be grateful if you could indicate the recorded call for CC[C@H]1CC[C@H](NCc2cc3c(cc2OC)[C@H]2C[C@H]2C(=O)N3C)[C@H](c2ccccc2)N1 .
t

Now for a further compound.
// outcome(item) with item = CCCCCCCCCCCCCCCO
f
